// data source = ChEMBL document CHEMBL3639372

Quick reference for Ki among some compounds
tested.on: Orexin/Hypocretin receptor type 1 (Rattus norvegicus, UniProt P56718)
Sequence (P56718 whole entry): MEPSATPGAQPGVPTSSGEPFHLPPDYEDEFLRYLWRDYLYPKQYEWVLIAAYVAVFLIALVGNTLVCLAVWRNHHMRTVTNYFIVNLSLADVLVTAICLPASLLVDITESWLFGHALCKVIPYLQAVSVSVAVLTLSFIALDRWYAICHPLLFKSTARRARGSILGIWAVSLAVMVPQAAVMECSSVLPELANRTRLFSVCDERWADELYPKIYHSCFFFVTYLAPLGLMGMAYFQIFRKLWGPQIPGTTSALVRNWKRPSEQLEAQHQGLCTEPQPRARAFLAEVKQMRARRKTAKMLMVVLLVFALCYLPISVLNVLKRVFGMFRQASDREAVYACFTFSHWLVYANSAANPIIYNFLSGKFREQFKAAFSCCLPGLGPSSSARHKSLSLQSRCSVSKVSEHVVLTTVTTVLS
experimental.details: Radioligand Binding Assay: Compound potency can be assessed by a radioligand binding assay (described in Bergman et. al. Bioorg. Med. Chem. Lett. 2008, 18, 1425-1430) in which the inhibition constant (Ki) is determined in membranes prepared from CHO cells expressing either the orexin-1 (OX1) or orexin-2 (OX2) receptor.
Answer with a number only, understood to be in nM.

compound	Ki, nM
Cc1ccc(-n2nccn2)c(C(=O)N2CC(COc3ccc(F)c(C)c3)CCCC2C)c1 (centres undefined)	8.7

Task item: So what's the measured Ki for this one? Cc1ccc(-c2ncccn2)c(C(=O)N2CC(COc3ccc(F)cn3)CCCC2C)c1 (centres undefined)
Reply: 310

Task item: Now the compound Cc1ccc(-n2nccn2)c(C(=O)N2CC(COc3ccc(F)c(C)c3)COCC2C)c1 (centres undefined)
Reply: 5.1

Task item: Now the compound Cc1cc(OCC2CCCC(C)N(C(=O)c3ccccc3-n3nccn3)C2)ccc1F (centres undefined)
Reply: 50
